Tested on: SF-295 CNS
Assay: NCI-60 one-dose screen, 48 h (100 = growth as untreated, 0 = no growth, -100 = all killed)
Conditions: 10 µM unless noted
Experimental: Cells are grown in 96 well plates and exposed to the test compound for 48 hours. Compounds are tested at a single concentration, which is 10^-5 M for most compounds. The reported endpoint is percent growth (GI% or GIPRCNT), where numbers from 0 - 100% represent growth inhibition, and numbers from -100% - 0 represent cell death. For example, a value of 40 represents 60% growth inhibition. A value of 0 means no net growth occurred over the course of the experiment. […]
The panel holds about 83,000 compounds, 20% with a hit somewhere; the sample as a whole holds those more often.
METRIC: growth (%)
Report only the number, with the unit % understood.

Example entries and their recorded answers appear below.
• Cc1cc(C)n(Cc2cc(C(C)(C)C)cc(C(C)(C)C)c2)c(=O)c1C#N = 85.9
• N#CCCCCCn1c2ccccc2c2c3c(c4c5ccccc5n(CCCCCC#N)c4c21)C(=O)N(O)C3=O = 89.2
• CCOC(=O)C/C(=C\c1ccccc1)C(C)=O = 98.5
• CCCNc1nc(N(C)O)nc(N(C)O)n1 = 21.5
• COc1ccccc1CNc1nc(N)nc2[nH]c3ccc(O)cc3c12 = 49.6
• CCN1CCN(C(=O)[C@]23CC[C@@H](C)[C@H](C)[C@H]2C2=CC[C@@H]4[C@@]5(C)C/C(=C/c6cccc(OC)c6OC)C(=O)C(C)(C)[C@@H]5CC[C@@]4(C)[C@]2(C)CC3)CC1 = 50.7

# lookup: growth of CNC(=O)c1cc(Oc2ccc3nc(NC(=O)Nc4ccc(Cl)cc4)sc3c2)ccn1 66.3

And for c1ccc2[nH]c(-c3ccc(Nc4nc(N5CCCCC5)nc(N5CCOCC5)n4)cc3)nc2c1 ? -51.4

And for O=C1c2ccccc2NC(c2cn(-c3ccccc3)nc2-c2cccnc2)N1Cc1ccccc1 (centres undefined) ? 92
